Target: Chromodomain Y-like protein (Homo sapiens, UniProt Q9Y232)
Sequence (Q9Y232 whole entry): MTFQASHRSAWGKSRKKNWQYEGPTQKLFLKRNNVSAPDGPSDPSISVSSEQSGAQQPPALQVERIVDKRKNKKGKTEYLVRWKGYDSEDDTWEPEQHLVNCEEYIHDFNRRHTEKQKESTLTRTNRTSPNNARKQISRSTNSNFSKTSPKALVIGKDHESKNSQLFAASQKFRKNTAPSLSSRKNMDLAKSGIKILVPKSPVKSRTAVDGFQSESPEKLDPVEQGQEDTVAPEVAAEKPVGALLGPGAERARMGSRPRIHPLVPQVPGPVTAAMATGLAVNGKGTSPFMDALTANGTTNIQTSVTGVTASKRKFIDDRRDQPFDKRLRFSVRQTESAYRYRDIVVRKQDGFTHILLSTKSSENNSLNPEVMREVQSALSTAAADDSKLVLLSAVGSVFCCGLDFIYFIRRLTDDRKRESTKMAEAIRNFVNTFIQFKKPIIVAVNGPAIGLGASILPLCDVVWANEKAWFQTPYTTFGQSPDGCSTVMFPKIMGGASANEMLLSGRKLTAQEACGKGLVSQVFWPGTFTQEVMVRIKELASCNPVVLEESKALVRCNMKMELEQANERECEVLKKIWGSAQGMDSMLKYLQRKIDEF
Assay: Binding affinity to recombinant human N-terminal GST-tagged CDYL (1 to 60 residues) expressed in Escherichia coli […] by SPR analysis
pKd: −log10 of the molar value.
Each record here notes measured pKd.
endpoint: pKd

INSERT INTO results (molecule, reported_result) VALUES
  ('O=C(Cn1c(=O)oc2ccc(Br)cc21)c1ccc2ccccc2c1', 5.24),
  ('O=C(Cn1c(=O)oc2ccccc21)c1cccc2ccccc12', 5.52),
  ('O=C(Cn1c(=O)oc2ccc([N+](=O)[O-])cc21)N1CCC(N2CCCC2)CC1', 4.77),
  ('COc1cccc(C(=O)Cn2c(=O)oc3ccccc32)c1', 5.31),
  ('Nc1ccc2c(c1)sc(=O)n2CC(=O)c1c[nH]c2ccccc12', 5.46),
  ('COc1ccc2oc(=O)n(CC(=O)N3CCC(N4CCCC4)CC3)c2c1', 4.90),
  ('O=C(Cn1c(=O)sc2cc([N+](=O)[O-])ccc21)c1c[nH]c2ccccc12', 4.14),
  ('CC(C)N1C(=O)C(O)(CC(=O)c2ccco2)c2ccccc21 (stereo unspecified)', 4.88),
  ('CCN(CC)C1CCN(C(=O)Cn2c(=O)oc3ccc(F)cc32)CC1', 5.55),
  ('COc1cccc(C(=O)Cn2c(=O)oc3ccc(OC)cc32)c1', 5.11),
  ('O=C(Cn1c(=O)oc2ccccc21)Nc1cccc2ccccc12', 4.54),
  ('CN1C(=O)C(O)(CC(=O)c2cccc3ccccc23)c2ccccc21 (stereo unspecified)', 3.89),
  ('CCCN1C(=O)C(O)(CC(=O)c2ccc3c(c2)CCCC3)c2ccccc21 (stereo unspecified)', 4.30),
  ('O=C(Cn1c(=O)oc2ccccc21)Nc1ccc2ccccc2c1', 4.72),
  ('CCc1ccc(C(=O)CC2(O)C(=O)Nc3ccc(Cl)cc32)cc1 (stereo unspecified)', 4.25),
  ('COc1ccc2oc(=O)n(CC(=O)c3ccc(OC)c(OC)c3)c2c1', 5.26),
  ('COc1cccc(C(=O)Cn2c(=O)oc3ccc(F)cc32)c1', 5.21),
  ('COc1ccc(C(=O)Cn2c(=O)oc3ccc(F)cc32)cc1OC', 4.69),
  ('O=C(Cn1c(=O)oc2ccccc21)c1ccc2ccccc2c1', 5.59),
  ('O=C(Cn1c(=O)oc2ccccc21)N1CCC(N2CCCC2)CC1', 6.30),
  ('COc1cccc(NC(=O)Cn2c(=O)oc3ccccc32)c1', 5.14),
  ('COc1cccc(C(=O)CN2C(=O)COc3ccccc32)c1', 4.89),
  ('CN(C)c1ccc(C(=O)Cn2c(=O)oc3ccccc32)cc1', 4.92),
  ('CN1CCc2c(sc3c2C(=O)N[C@@H](/C=C\c2ccccc2)N3)C1', 4.25),
  ('O=C(Cn1c(=O)oc2cc(Br)ccc21)c1ccc2ccccc2c1', 4.54),
  ('CCN(CC)C1CCN(C(=O)Cn2c(=O)oc3ccccc32)CC1', 5.24),
  ('COc1ccc2oc(=O)n(CC(=O)c3ccc4ccccc4c3)c2c1', 5.82),
  ('CCCCN1C(=O)C(O)(CC(=O)c2cccc(OC)c2)c2ccccc21 (stereo unspecified)', 4.00),
  ('CCN(CC)CCOC(=O)CCc1cccc2ccccc12', 4.22),
  ('COCCCNC(=O)Cc1c(C)c2c(O)cc(C)cc2oc1=O', 4.59),
  ('O=C(CN1C(=O)COc2ccccc21)c1ccc2ccccc2c1', 4.28),
  ('O=C(Cn1c(=O)oc2ccccc21)N1CCC(N2CCCCC2)CC1', 4.93),
  ('C=CCN1C(=O)C(O)(CC(=O)c2ccc3ccccc3c2)c2ccccc21 (stereo unspecified)', 4.50),
  ('CN(C)c1ccc(C(=O)Cn2c(=O)oc3ccc(F)cc32)cc1', 4.05),
  ('C[C@@H](CN1CCCC1)OC(=O)c1ccc(Cl)cc1Cl', 3.57),
  ('O=C(Cn1c(=O)oc2ccccc21)c1c[nH]c2ccccc12', 5.72),
  ('COc1ccccc1[C@@H]1NC(=O)c2c(sc3c2CCN(C)C3)N1', 4.27),
  ('COc1ccc2oc(=O)n(CC(=O)c3c[nH]c4ccccc34)c2c1', 5.14),
  ('CN1C(=O)C(O)(CC(=O)c2ccc3ccccc3c2)c2ccccc21 (stereo unspecified)', 4.71),
  ('O=C(Cn1c(=O)oc2ccc(F)cc21)c1ccc2ccccc2c1', 4.70),
  ('O=C(Cn1c(=O)oc2ccccc21)N1CCC(N2CCOCC2)CC1', 4.59),
  ('O=C(Cn1c(=O)sc2cc([N+](=O)[O-])ccc21)c1ccc2ccccc2c1', 4.57),
  ('CCCN1C(=O)C(O)(CC(=O)c2cccc3ccccc23)c2ccccc21 (stereo unspecified)', 4.64),
  ('Nc1ccc2c(c1)sc(=O)n2CC(=O)c1ccc2ccccc2c1', 5.31),
  ('O=C(CN1C(=O)COc2ccccc21)c1c[nH]c2ccccc12', 4.22),
  ('COc1cccc(C(=O)/C=C2\C(=O)Nc3ccc(Cl)cc32)c1', 4.81);

Reference for the values: ChEMBL document CHEMBL4359913
